- system-name: T1, human vascular endothelial growth factor receptor-2 Fc chimera (KDR-Fc) (human, UniProt P35968 20-764)
- T1 construct: range 1-764; purchased from R&D Systems; also called hKDR; human VEGF-R2-Fc; not shown: human IgG1 Fc
- T1 sequence (P35968 20-764 limits assumed, change not shown, form in doubt): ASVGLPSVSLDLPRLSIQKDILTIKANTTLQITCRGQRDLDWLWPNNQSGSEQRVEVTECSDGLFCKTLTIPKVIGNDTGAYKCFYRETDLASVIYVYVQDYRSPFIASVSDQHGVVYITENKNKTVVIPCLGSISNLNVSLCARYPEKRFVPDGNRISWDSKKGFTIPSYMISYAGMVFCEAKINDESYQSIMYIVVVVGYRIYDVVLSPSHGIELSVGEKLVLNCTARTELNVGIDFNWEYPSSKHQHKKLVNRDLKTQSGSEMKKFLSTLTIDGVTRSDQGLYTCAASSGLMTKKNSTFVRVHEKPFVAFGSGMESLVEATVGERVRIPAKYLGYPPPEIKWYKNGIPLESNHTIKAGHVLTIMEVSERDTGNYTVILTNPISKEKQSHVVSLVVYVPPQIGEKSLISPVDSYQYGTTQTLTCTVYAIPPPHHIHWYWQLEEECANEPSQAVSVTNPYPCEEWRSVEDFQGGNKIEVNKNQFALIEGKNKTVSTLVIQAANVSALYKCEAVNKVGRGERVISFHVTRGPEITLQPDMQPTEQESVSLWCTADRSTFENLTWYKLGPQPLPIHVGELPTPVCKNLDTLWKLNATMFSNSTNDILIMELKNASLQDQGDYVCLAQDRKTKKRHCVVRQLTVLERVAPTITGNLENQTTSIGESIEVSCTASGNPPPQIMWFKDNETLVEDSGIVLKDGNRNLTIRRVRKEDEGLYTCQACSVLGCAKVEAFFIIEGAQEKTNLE
- assay-overview: radioactive equilibrium binding, 1 nM KDR-Fc
- Protocol: To prepare ³⁵S-labeled binding proteins for analysis, mRNA was prepared as described above for RNA-protein fusion production but the linker ligation step was omitted. […] 50 μA of the reaction mixture and elution were dried onto a LumaPlate-96 (Packard) and the amount of ³⁵S on the plate was measured using a TopCount NXT instrument (Packard). […] Data was analyzed using the GraphPad Prizm software (GraphPad Software, Inc, San Diego, Calif.), fitted using a one site, non-linear binding equation.
reported-endpoint: Binding to 1 nM KDR, % (%)
Kindly answer with a numeric value in %, unit omitted.

Below are worked cases with known answers.
# binder, Binding to 1 nM KDR, % [%]
measured = [
    ("1′DelB7 PR4 (designed binder, tag left out) EVVAATPTSLLISWRHPHFPTRYYRITYGETGGNSPVQEFTVPLQPPTATISGLKPGVDYTITGYAVTVAQNDHELKTPISINYRT", 8),
    ("3′F7 PR4 (designed binder, tag left out) EVVAATPTSLLISWRHPHFPTRYYRITYGETGGNSPVQEFTVPLQPPTATISGLKPGVDYTITGYAVTEGQNGSELIVPISINYRT", 14),
    ("1′DelC2 PR4 (designed binder, tag left out) EVVAATPTSLLISWRHPHFPTRYYRITYGETGGNSPVQEFTVPLQPPTATISGLKPGVDYTITGYAVTVDRNDHELFTPISINYRT", 13),
    ("4D2 PR3 (designed binder, tag left out) EVVAATPTSLLISWRHPHFPTRYYRITYGETGGNSPVQEFTVPLQPPTATISGLKPGVDYTITGYAVTVAQNNHELITPISINYRT", 8),
    ("2G9 PR3 (designed binder, tag left out) VSDVPRDLEVVAATPTSLLISWRHPHFPTRYYRITYGETGGNSPVQEFTVPLQPPTATISGLKPGVDYTITGYAVTEIYNDHELMTPISINYRT", 9),
    ("3F4 PR3 (designed binder, tag left out) EVVAATPTSLLISWRHPHFPTRYYRITYGETGGNSPVQEFTVPLQPPTATISGLKPGVDYTITGYAVTMGYEDHELITPISINYRT", 10),
    ("3C5 PR3 (designed binder, tag left out) EVVAATPTSLLISWRHPHFPTRYYRITYGETGGNSPVQEFTVPLQPPTATISGLKPGVDYTITGYAVTGDHNDRELMTPISINYRT", 12),
    ("2F3 PR3 (designed binder, tag left out) VSDVPRDLEVVAATPTSLLISWRHPHFPTRYYRITYGETGGNSPVQEFTVPLQPPTATISGLKPGVDYTITGYAVTLSHYGKELRTPISINYRT", 8),
]

Then this binder:
4′G8 PR4 (designed binder, tag left out) EVVAATPTSLLISWRHPHFPTRYYRITYGETGGNSPVQEFTVPLQPPTATISGLKPGVDYTITGYAVTVAQNGHELLTPISINYRT yielded Binding to 1 nM KDR, % of 13
